Cited source: the NIST ThermoML archive (doi:10.1021/je060139a)

test: xn = mol fraction of the nth substance listed; conditions: 288.15 K, Wilhelmy plate method, x1 = 0.8
Kindly supply the reported surface tension liquid-gas values for the records listed here.
Answers are plain numbers, in mN/m.

# molecule, measured result
data = [
    ("CCOC(=O)CC(C)=O [ethyl 3-oxobutanoate] + CCO", 31.53),
    ("CCC(=O)OCc1ccccc1 [benzyl propanoate] + CCO", 32.88),
    ("CCOC(=O)c1ccccc1O [ethyl 2-hydroxybenzoate] + CCO", 33.4),
    ("COC(=O)c1ccccc1 [methyl benzoate] + CCO", 34.6),
    ("CC(=O)OCc1ccccc1 [benzyl ethanoate] + CCO", 34.4),
]

Fill blank: measured surface tension liquid-gas of the molecule CCOC(=O)CC(C)C [ethyl 3-methylbutanoate] + CCO is ____.
24.2

---

experiment: xn = mol fraction of the nth substance listed; settings: 318.15 K, Wilhelmy plate method, x1 = 0.25
recorded endpoint: surface tension liquid-gas (mN/m)
Answers are plain numbers, in mN/m.

Would you please look over these solved cases?
# compound, recorded endpoint, measured result
data = [
    ("CC(=O)OCc1ccccc1 [benzyl ethanoate] + CCO", "surface tension liquid-gas", 23.8),
    ("CCOC(=O)CC(C)=O [ethyl 3-oxobutanoate] + CCO", "surface tension liquid-gas", 22.9),
]

Dear colleague, could you send me surface tension liquid-gas for each of the items below? Thanks.
1. COC(=O)c1ccccc1 [methyl benzoate] + CCO
2. CCOC(=O)CC(C)C [ethyl 3-methylbutanoate] + CCO
3. CCC(=O)OCc1ccccc1 [benzyl propanoate] + CCO

[23.95, 20.88, 23.8]

Fill blank: measured surface tension liquid-gas of the compound CCOC(=O)c1ccccc1O [ethyl 2-hydroxybenzoate] + CCO is ____.
23.7

---

Kindly supply the reported refractive index values for the records listed here.
test: refractive index (Na D-line) (dimensionless); xn = mol fraction of the nth substance listed; details: 298.18 K; 100.5 kPa; Liquid; Standard Abbe refractometry; x1 = 0.35
Give bare numbers.

Would you please look over these solved cases?
# compound, refractive index
measured = [
    ("CC(=O)OCc1ccccc1 [benzyl ethanoate] + CCO", 1.44048),
    ("CCC(=O)OCc1ccccc1 [benzyl propanoate] + CCO", 1.44128),
    ("CCOC(=O)c1ccccc1O [ethyl 2-hydroxybenzoate] + CCO", 1.45364),
]

Dear colleague, could you send me refractive index for each of the items below? Thanks.
1. CCOC(=O)CC(C)C [ethyl 3-methylbutanoate] + CCO
2. CCOC(=O)CC(C)=O [ethyl 3-oxobutanoate] + CCO
3. COC(=O)c1ccccc1 [methyl benzoate] + CCO

[1.37961, 1.3908, 1.44448]

---

experiment: xn = mol fraction of the nth substance listed; conditions: 308.15 K, Wilhelmy plate method, x1 = 0.15
Kindly supply the reported surface tension liquid-gas values for the records listed here.
One number for each entry, in mN/m.

Would you please look over these solved cases?
# molecule, unit label, measured result
data = [
    ("CCOC(=O)c1ccccc1O [ethyl 2-hydroxybenzoate] + CCO", "mN/m", 23.55),
    ("CCOC(=O)CC(C)=O [ethyl 3-oxobutanoate] + CCO", "mN/m", 22.91),
    ("CC(=O)OCc1ccccc1 [benzyl ethanoate] + CCO", "mN/m", 23.63),
    ("CCC(=O)OCc1ccccc1 [benzyl propanoate] + CCO", "mN/m", 23.7),
    ("CCOC(=O)CC(C)C [ethyl 3-methylbutanoate] + CCO", "mN/m", 21.7),
]

Let's switch to this molecule now.
Fill blank: measured surface tension liquid-gas of the molecule COC(=O)c1ccccc1 [methyl benzoate] + CCO is ____.
23.57
